These measurements were taken from patent US7071220B2.

pIC50 overview
- target: Simian chymase (Macaca mulatta, UniProt F6SAJ2)
- Sequence (F6SAJ2 22-247 limits assumed): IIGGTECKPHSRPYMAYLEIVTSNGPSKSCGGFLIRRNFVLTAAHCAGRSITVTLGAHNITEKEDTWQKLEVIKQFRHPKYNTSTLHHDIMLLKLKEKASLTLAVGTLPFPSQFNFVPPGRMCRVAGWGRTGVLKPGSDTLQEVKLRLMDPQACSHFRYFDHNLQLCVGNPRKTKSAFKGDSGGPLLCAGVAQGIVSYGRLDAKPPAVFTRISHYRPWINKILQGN
- protocol.notes: Measurement of inhibitory activity of simian chymase (Ang I substrate, His-Leu/OPT fluorescence)
- Type: biochemical, rhesus monkey
- measurement.parameters: chymase from heart of rhesus monkey; 120 minutes at 37° C.; read-out: Simian chymase IC50 value
pIC50: −log10 of the molar value.
endpoint.name: pIC50

> print(dat)
                              smiles.string  endpoint.name  data.value
1  Cc1c(S(=O)(=O)Nc2ccc(-c3nc(C(=O)O)cs3)cc2S(C)(=O)=O)sc2ccc(F)cc12          pIC50        9.40
2  CCOC(=O)c1ccc(NS(=O)(=O)c2sc3ccc(Cl)cc3c2C)c(S(C)(=O)=O)c1          pIC50        7.38
3  Cc1c(S(=O)(=O)Nc2ccc(C(=O)OC(C)(C)C)cc2S(C)(=O)=O)sc2ccc(Cl)cc12          pIC50        6.75
4  COC(=O)c1cc(S(C)(=O)=O)c(NS(=O)(=O)c2sc3ccc(Cl)cc3c2C)cc1C          pIC50        6.82
